tested target: Casein kinase I isoform delta (Homo sapiens) (UniProt P48730)
Sequence (P48730 whole entry, looked up, canonical isoform): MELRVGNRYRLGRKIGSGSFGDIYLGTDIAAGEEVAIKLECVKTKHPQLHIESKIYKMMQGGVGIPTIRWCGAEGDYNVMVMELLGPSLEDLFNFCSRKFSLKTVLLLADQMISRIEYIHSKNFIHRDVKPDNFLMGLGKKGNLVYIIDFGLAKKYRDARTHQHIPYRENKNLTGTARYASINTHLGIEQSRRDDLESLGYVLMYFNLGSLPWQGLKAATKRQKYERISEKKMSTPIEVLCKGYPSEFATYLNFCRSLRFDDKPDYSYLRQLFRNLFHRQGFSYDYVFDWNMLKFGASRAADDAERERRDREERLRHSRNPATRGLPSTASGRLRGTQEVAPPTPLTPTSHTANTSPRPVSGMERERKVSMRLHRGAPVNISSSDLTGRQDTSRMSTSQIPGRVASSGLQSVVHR
condition details: Compound concentration 20.0 uM, Protein concentration 2.0 uM, Result type QC Liability
Description: Thermal Shift Assay. Domain: start/stop: M1-K294
measure: ΔTm (°C)
Supply the numeric figure in °C, leaving out any unit text.

Example results:
Task: Recorded ΔTm for `Cc1nnc2n1-c1sc3c(c1C(c1ccccc1Cl)=NC2)C[C@@H](C(=O)N1CCOCC1)C3` , please?
Output: 0.17

Task: # lookup: ΔTm of `CO[C@H](C)CN1CC[C@@]2(C)c3ccc(O)cc3C[C@@H]1C2(C)C`
Output: 0.29

Task: So what does the record say about ΔTm for `CS(=O)(=O)c1ccc(-c2cnc(N)c(C(=O)Nc3ccccc3)n2)cc1` ?
Output: -0.19

Task: Entry `COc1ccc(-n2nc(C(F)(F)F)cc2-c2ccc(Cl)cc2)cc1` has what ΔTm?
Output: 0.03

Task: Suppose we examine the molecule `Cc1nnc2n1-c1sc(CCC(=O)N3CCOCC3)cc1C(c1ccccc1Cl)=NC2` ; what ΔTm value has been reported?
Output: 0.34

---
Task: Any idea what ΔTm was measured for `Clc1ccccc1C(c1ccccc1)(c1ccccc1)n1cccn1` ?
Output: -0.01

Task: Record request: ΔTm value, item Cc1nnc2n1-c1sc3c(c1C(c1ccccc1Cl)=NC2)CC(C(=O)N1CCOCC1)C3 (stereo not drawn)
Output: 0.02

Task: Look up ΔTm: CCC(=O)O[C@@H](OP(=O)(CCCCc1ccccc1)CC(=O)N1C[C@H](C2CCCCC2)C[C@H]1C(=O)O)C(C)C (stereo partly drawn)
Output: -0.25

====

tested target: Mitogen-activated protein kinase 1 (Homo sapiens)
condition details: Compound concentration 20.0 uM, Protein concentration 2.0 uM, Result type QC Liability
Description: Thermal Shift Assay. Domain: start/stop: M1-S360
// map ΔTm to label using lo (below 0.1 °C), med (0.1 °C to below 0.3 °C), hi (0.3 °C or more)

Worked cases, answers included:
Task: Which band does COP(=O)(CCC(N)C(=O)O)Oc1cccc(CC(=O)O)c1 (centres undefined) fall in?
Output: med

Task: Which class does `C[C@H](CCC(=O)O)[C@H]1CC[C@H]2[C@@H]3[C@@H](O)C[C@@H]4C[C@H](O)CC[C@]4(C)[C@H]3CC[C@]12C` fall in?
Output: med

Task: Hi, small favor: classify `CN1CCN(C(=O)Cc2ccc(N/C(=C3\C(=O)Nc4cc(Cl)ccc43)c3ccccc3)cc2)CC1` by its ΔTm when you get a moment.
Output: lo

Task: Which category does the recorded ΔTm put OCC1OC(n2cnc3cc(Cl)c(Cl)cc32)C(O)C1O (centres undefined) in?
Output: med

Task: Which bin, given its ΔTm, does `C[C@@H](CO)CCC[C@@H](C)[C@H]1CC[C@H]2[C@@H]3CC=C4C[C@@H](O)CC[C@]4(C)[C@H]3CC[C@]12C` occupy?
Output: hi

Task: Record `CO[C@H](C)CN1CC[C@]2(C)c3cccc(O)c3C[C@H]1C2(C)C` — which class?
Output: lo

Continuing:
Task: Hello team, could you let me know which band the following molecule falls into: `CS(=O)(=O)c1ccc(-c2cnc(N)c(C(=O)Nc3ccccc3)n2)cc1`
Output: hi

Task: Into which bin does this molecule go? CCC(=O)O[C@@H](OP(=O)(CCCCc1ccccc1)CC(=O)N1C[C@H](C2CCCCC2)C[C@H]1C(=O)O)C(C)C (some centres undefined)
Output: med

Task: Entry `C=CC(=O)Nc1ccc2[nH]c(=O)n(C3CCN(Cc4ccc(-c5ccc6c(c5)NC(=O)CO6)cc4)CC3)c2c1` belongs to which category?
Output: hi
